system_tested: Serotonin 3 (5-HT3) receptor (Rattus norvegicus, UniProt P35563+Q9JJ16)
Sequence (P35563 whole entry): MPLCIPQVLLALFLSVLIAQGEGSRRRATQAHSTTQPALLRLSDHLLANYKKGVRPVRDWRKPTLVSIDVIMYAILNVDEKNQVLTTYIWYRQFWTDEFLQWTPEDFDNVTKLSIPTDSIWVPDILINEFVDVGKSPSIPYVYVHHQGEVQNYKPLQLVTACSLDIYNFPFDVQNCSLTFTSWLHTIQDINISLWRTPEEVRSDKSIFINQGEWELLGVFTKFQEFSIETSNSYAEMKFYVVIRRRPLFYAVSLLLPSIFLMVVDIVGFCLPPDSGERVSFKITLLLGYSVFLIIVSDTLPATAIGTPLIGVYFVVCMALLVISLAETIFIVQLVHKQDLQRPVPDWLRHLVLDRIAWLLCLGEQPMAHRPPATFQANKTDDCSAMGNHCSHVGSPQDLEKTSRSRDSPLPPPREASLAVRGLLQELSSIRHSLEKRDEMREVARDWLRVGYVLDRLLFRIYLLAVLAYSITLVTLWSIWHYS
Sequence (Q9JJ16 whole entry): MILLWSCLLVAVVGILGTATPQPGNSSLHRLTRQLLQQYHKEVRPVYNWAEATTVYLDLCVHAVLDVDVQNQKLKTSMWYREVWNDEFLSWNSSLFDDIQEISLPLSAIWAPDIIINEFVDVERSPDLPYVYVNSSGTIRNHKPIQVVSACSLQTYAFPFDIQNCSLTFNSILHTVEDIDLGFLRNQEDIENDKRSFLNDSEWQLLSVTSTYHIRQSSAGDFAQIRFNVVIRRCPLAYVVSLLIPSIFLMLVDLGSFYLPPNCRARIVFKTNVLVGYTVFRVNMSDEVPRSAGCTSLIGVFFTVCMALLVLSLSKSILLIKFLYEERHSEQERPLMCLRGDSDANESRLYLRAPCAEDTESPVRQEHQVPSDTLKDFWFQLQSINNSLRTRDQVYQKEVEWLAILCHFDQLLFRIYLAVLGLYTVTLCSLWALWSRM
assay_info: Compound was evaluated for its binding affinity for 5-hydroxytryptamine 3 receptor by measuring displacement [3H]GR-65630 in rat cerebral cortex.
Type: tissue-based
observation_type: pIC50
Lab note: report pIC50 as minus log10 of the concentration in molar units, number only.

Query: Request the reported pIC50 associated with Cn1cc(-c2noc(C3CN4CCC3CC4)n2)c2ccccc21 (stereo unspecified)
Result: 8.85

====

Property: Ki; scope: individual molecules
system_tested: Serotonin 3 (5-HT3) receptor (Rattus norvegicus, UniProt P35563+Q9JJ16)
assay_info: Compound was evaluated for its binding affinity for 5-hydroxytryptamine 3 receptor by measuring displacement [3H]GR-65630 in rat cerebral cortex
Reply with just the number (in nM).

CN1[C@@H]2CC[C@H]1C[C@@H](OC(=O)c1c[nH]c3ccccc13)C2	3.2
CCN(CC)CCNC(=O)c1cc(Cl)c(N)cc1OC [METOCLOPRAMIDE]	348

Next up:
Query: Quick check: Ki of CN1[C@@H]2CC[C@H]1C[C@@H](OC(=O)c1cc(Cl)cc(Cl)c1)C2 ?
Result: 54

====

Parameter Ki, tested on Muscarinic acetylcholine receptor M2 (Rattus norvegicus), listed per item.
Sequence (P10980 whole entry): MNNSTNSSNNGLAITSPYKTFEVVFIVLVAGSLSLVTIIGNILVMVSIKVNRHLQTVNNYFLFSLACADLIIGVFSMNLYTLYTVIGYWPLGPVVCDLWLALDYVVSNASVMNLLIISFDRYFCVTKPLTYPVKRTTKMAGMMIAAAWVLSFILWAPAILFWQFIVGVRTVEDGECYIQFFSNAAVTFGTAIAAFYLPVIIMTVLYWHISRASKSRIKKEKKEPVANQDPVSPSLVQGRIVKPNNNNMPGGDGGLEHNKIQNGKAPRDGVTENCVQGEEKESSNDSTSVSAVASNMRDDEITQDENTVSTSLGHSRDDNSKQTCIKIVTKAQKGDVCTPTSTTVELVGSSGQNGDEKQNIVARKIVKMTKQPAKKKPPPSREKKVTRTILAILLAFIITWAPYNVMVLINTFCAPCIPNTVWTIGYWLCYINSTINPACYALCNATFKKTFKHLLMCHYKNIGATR
Answer in µM, number only, no unit symbol.

Query: Name the recorded Ki for CN1CCN(c2ccc(-c3ccccc3)nn2)CC1 .
Result: 71

Query: Requested read-out: Ki. Entry: CN1CCN(c2nncc3ccccc23)CC1
Result: 38
